Source of measurements: ChEMBL document CHEMBL5034020

- Tested system: Procathepsin L (Homo sapiens, UniProt P07711)
- Sequence (P07711 whole entry): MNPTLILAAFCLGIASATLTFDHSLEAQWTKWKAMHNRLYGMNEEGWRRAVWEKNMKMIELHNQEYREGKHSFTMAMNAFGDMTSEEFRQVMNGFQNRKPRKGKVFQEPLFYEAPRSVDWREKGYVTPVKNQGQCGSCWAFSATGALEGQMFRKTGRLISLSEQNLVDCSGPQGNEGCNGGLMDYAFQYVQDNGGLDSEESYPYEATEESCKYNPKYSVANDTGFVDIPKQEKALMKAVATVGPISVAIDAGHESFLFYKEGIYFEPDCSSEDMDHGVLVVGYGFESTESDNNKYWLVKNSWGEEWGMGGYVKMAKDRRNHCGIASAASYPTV
Reported endpoint: Ki (nM)

{"Mol": "CC(C)[C@H](NC(=O)OCc1ccccc1)C(=O)N[C@@H](CC1CCCCC1)C(=O)N[C@H](C=O)Cc1ccc[nH]c1=O", "Unit of measure": "nM", "Observed value": 53}

---

- Assay method text: Inhibition of SARS-CoV-2 3CLpro using ACC-SAVLQSGFRK(DNP)-NH2 as substrate assessed as inhibition constant measured for 0.5 to 1 hr by fluorescence based analysis
- Design: species or system Severe acute respiratory syndrome coronavirus 2
pKi: −log10 of the molar value.

{"Mol": "CC(C)[C@H](NC(=O)OCc1ccccc1)C(=O)N[C@@H](CC1CCCCC1)C(=O)N[C@H](C=O)Cc1ccc[nH]c1=O", "pKi": 8.05}

---

- Tested system: UniProt:P25779
- Sequence (P25779 whole entry): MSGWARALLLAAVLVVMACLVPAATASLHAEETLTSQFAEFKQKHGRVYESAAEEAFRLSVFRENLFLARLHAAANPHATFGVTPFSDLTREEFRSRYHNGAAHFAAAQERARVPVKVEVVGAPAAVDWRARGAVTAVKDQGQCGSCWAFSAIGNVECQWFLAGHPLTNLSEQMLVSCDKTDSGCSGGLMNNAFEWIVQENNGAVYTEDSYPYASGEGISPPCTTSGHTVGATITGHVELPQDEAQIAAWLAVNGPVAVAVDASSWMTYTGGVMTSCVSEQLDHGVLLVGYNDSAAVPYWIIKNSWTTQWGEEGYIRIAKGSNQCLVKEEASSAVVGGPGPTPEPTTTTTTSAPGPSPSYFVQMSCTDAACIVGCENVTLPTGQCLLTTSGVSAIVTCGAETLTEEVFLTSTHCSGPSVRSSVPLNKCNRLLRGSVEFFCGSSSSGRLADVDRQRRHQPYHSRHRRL
- Assay method text: Time dependent inhibition of Trypanosoma cruzi cruzain using Cbz-Phe-Arg-AMC as substrate assessed as inhibition constant for EI complex measured for 0.5 to 1 hr by fluorescence based analysis

{"Compound": "CCC(=O)OC1Oc2ccccc2C[C@@H]1NC(=O)[C@H](Cc1ccccc1)NC(=O)N1CCN(C)CC1 (stereo partly specified)", "Ki": "> 5 µM"}
{"Compound": "CC(C)C(=O)OC1Oc2ccccc2C[C@@H]1NC(=O)[C@H](Cc1ccccc1)NC(=O)N1CCN(C)CC1 (stereo partly specified)", "Ki": "> 5 µM"}
{"Compound": "CC(C)OC1Oc2ccccc2C[C@@H]1NC(=O)[C@H](Cc1ccccc1)NC(=O)N1CCN(C)CC1 (stereo partly specified)", "Ki": "> 5 µM"}
{"Compound": "CCOC1Oc2ccccc2C[C@@H]1NC(=O)[C@H](Cc1ccccc1)NC(=O)N1CCN(C)CC1 (stereo partly specified)", "Ki": "> 5 µM"}
{"Compound": "O=C(CN[C@@H](Cc1ccccc1)C(=O)N[C@H](CO)Cc1ccccc1O)OCc1ccccc1", "Ki": "> 10 µM"}
{"Compound": "CN1CCN(C(=O)N[C@@H](Cc2ccccc2)C(=O)N[C@@H]2Cc3ccccc3C[C@H]2O)CC1 (mixture of isomers)", "Ki": "> 100 µM"}
